- Experiment notes: chemical genetic growth profiling, strain panel (AID 1159580);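 further: tested at 20 µM; growth read once vehicle control cultures reached saturation at 30 °C; 1 = growth at the plate median or of vehicle wells; lower values mean less growth of the strain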
- Experimental conditions: S. cerevisiae deletion strains, growth OD, locus YOR290C, strain snf2, hits give low values
Screen size: about 5,500 compounds; about 2,000 (36%) were called active. Another 18% or so got no clear call; they are omitted. The list shows a part of the results.
Endpoint: normalized growth

Here are 5 compounds together with their reported answers.
Reported normalized growth of C[C@H]1CC[C@@H](C(C)(C)O)CC2=C1CC[C@@H]2C : 0.925 (inactive)

Reported normalized growth of CCOC(=O)c1ccc(O)cc1 : 0.975 (inactive)

Reported normalized growth of CCCCC(=O)Oc1ccccc1C(=O)O : 0.971 (inactive)

Reported normalized growth of C=CC(N)CCC(=O)O (stereo not given) : 0.945 (inactive)

Reported normalized growth of CCCCN(CCCC)CCCOC(=O)c1ccc(N)cc1 : 0.986 (inactive)

More entries:
Reported normalized growth of COc1ccc(-c2coc3cc(OC)cc(OC)c3c2=O)cc1 : 0.948 (inactive)

Reported normalized growth of CCCOc1ccc(C(=O)OCCN(CC)CC)cc1N : 1.01 (inactive)

Reported normalized growth of CC1=CC2C(CC1=O)C(C)=CCC2C(C)C (stereo not given) : 0.972 (inactive)

Reported normalized growth of COC(=O)C(C)c1ccc(C(=O)c2cccs2)cc1 (stereo not given) : 1 (inactive)

Reported normalized growth of COc1cc2occ(-c3ccccc3)c(=O)c2c(OC)c1C : 0.919 (inactive)

Reported normalized growth of COc1ccc2c(c1)O[C@H]1c3ccc(OC)cc3OC[C@@H]21 : 1.04 (inactive)

Reported normalized growth of CC(=O)OCC[C@H](C)CCC=C(C)C : 0.997 (inactive)

Reported normalized growth of COc1ccc([C@H]2Oc3cc(OC)cc(OC)c3C[C@H]2O)cc1 : 1.01 (inactive)

Reported normalized growth of O=c1cc[nH]c(=S)[nH]1 : 1.04 (inactive)

Reported normalized growth of C[C@@H]1C(=O)OC2[C@H](O)C34[C@@H]5OC(=O)[C@@]3(O[C@@H]3OC(=O)[C@H](O)[C@@]34[C@H](C(C)(C)C)[C@H]5O)[C@]21O (stereo not given in full) : 0.953 (inactive)

Reported normalized growth of Cc1ccc(C)c(OCCCC(C)(C)C(=O)O)c1 : 0.906 (inactive)

Reported normalized growth of CO/N=C(\C(=O)NC1C(=O)N2C(C(=O)OC(C)OC(C)=O)=C(COC(N)=O)CSC12)c1ccco1 (stereo not given) : 1 (inactive)

Reported normalized growth of CCCCCCCCCCCCCCCC(=O)OC1C(SC)OC(C(NC(=O)C2CC(CCC)CN2C)C(C)Cl)C(O)C1O (stereo not given) : 0.974 (inactive)

Reported normalized growth of CC(C(=O)O)c1ccc(C(=O)c2cccs2)cc1 (stereo not given) : 1.01 (inactive)

Reported normalized growth of CO/N=C(\C(=O)N[C@@H]1C(=O)N2C(C(=O)O)=C(COC(C)=O)CS[C@H]12)c1csc(N)n1 : 0.946 (inactive)

Reported normalized growth of O=C(Cn1ccnc1[N+](=O)[O-])NCCO : 1.01 (inactive)

Reported normalized growth of CCCCNc1ccc(C(=O)OCCN(C)C)cc1 : 1.06 (inactive)

Reported normalized growth of O=C(C1CCCCC1)N1CC(=O)N2CCc3ccccc3C2C1 (stereo not given) : 1.02 (inactive)
